Each item that follows carries a reported half-life.
Assay: Lung-tissue pharmacokinetics of PG–OJ components in tumor-bearing mice (UPLC–MS/MS)
Assay type: in vivo, BALB/c nude male mice
Settings: male, BALB/c nude, mouse, po; lung tissue, A549 tumor-bearing mice, intragastric PG–OJ extract 10.2 g/kg (6.8 g/kg elsewhere in the source), mean ± SD, n = 6; read-out: T1/2
READOUT_NAME: half-life (h)

[[record]]
molecule = "CC(C)=CC/C=C(\\C)[C@H]1CC[C@]2(C)[C@@H]1[C@H](O)C[C@@H]1[C@@]3(C)CC[C@H](O[C@@H]4O[C@H](CO)[C@@H](O)[C@H](O)[C@H]4O[C@@H]4O[C@H](CO)[C@@H](O)[C@H](O)[C@H]4O)C(C)(C)[C@@H]3CC[C@]12C [Ginsenoside Rg5]"
readout_name = "half-life"
reported_result = 2.11

[[record]]
molecule = "CC(C)=CCC[C@](C)(O[C@@H]1O[C@H](CO)[C@@H](O)[C@H](O)[C@H]1O)[C@H]1CC[C@]2(C)[C@@H]1[C@H](O)C[C@@H]1[C@@]3(C)CC[C@H](O)C(C)(C)[C@@H]3[C@@H](O[C@@H]3O[C@H](CO)[C@@H](O)[C@H](O)[C@H]3O)C[C@]12C [Ginsenoside Rg1]"
readout_name = "half-life"
reported_result = 1.64

[[record]]
molecule = "CC(C)=CCC[C@](C)(O[C@@H]1O[C@H](CO[C@@H]2OC[C@H](O)[C@H](O)[C@H]2O)[C@@H](O)[C@H](O)[C@H]1O)[C@H]1CC[C@]2(C)[C@@H]1[C@H](O)C[C@@H]1[C@@]3(C)CC[C@H](O[C@@H]4O[C@H](CO)[C@@H](O)[C@H](O)[C@H]4O[C@@H]4O[C@H](CO)[C@@H](O)[C@H](O)[C@H]4O)C(C)(C)[C@@H]3CC[C@]12C [Ginsenoside Rb2]"
readout_name = "half-life"
reported_result = 19.9

